All values here come from ChEMBL document CHEMBL1136975.

target entity: Disintegrin and metalloproteinase domain-containing protein 17 (Homo sapiens)
Sequence (P78536 whole entry, the tested form may be a part): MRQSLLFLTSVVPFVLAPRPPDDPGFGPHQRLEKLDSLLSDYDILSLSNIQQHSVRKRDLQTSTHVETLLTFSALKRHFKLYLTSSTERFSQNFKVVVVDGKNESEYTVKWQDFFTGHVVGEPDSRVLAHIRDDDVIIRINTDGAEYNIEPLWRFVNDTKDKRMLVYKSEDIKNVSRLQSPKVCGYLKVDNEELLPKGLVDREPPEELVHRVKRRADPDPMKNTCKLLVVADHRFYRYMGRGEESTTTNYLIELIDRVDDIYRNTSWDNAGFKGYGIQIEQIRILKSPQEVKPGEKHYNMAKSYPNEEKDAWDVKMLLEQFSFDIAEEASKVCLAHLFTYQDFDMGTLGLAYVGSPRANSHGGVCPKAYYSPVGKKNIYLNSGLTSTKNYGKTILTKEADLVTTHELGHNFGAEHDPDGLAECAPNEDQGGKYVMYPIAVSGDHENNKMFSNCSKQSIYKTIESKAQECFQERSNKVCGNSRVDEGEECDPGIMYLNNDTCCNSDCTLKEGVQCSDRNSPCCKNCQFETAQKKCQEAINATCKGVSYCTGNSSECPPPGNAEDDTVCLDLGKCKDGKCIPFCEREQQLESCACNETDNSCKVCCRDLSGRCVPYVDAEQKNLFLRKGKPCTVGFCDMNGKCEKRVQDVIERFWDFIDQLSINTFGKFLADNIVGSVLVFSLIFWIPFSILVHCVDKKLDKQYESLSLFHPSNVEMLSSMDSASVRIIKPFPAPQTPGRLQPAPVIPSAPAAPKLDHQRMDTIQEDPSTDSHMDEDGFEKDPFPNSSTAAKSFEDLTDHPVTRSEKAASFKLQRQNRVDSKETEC
assay text: Inhibition of human TACE catalytic domain expressed in CHO cells by FRET assay
assay readout: pIC50
Quick note: pIC50 means taking -log10 of the concentration in moles per liter.

Lookup result for `CC#CCOc1ccc(S(=O)(=O)C2(C(=O)NO)CCN(Cc3ccc(Cl)c(Cl)c3)CC2)cc1` ; measured pIC50: 6.83

Lookup result for `CC#CCOc1ccc(S(=O)(=O)CC2(C(=O)NO)CCN(C(C)=O)CC2)cc1` ; measured pIC50: 8.70

Lookup result for `Cc1cc(COc2ccc(S(=O)(=O)C3(C(=O)NO)CCN(C(=O)C(C)C)CC3)cc2)c2ccccc2n1` ; measured pIC50: 8.70

Lookup result for `CC(=O)N1CCC(C(=O)NO)(S(=O)(=O)c2ccc(OCc3cc(C)nc4ccccc34)cc2)CC1` ; measured pIC50: 9.00

Lookup result for `Cc1cc(COc2ccc(S(=O)(=O)C3(C(=O)NO)CCN(C(=O)c4ccncc4)CC3)cc2)c2ccccc2n1` ; measured pIC50: 8.70

Lookup result for `Cc1cc(COc2ccc(S(=O)(=O)C3(C(=O)NO)CCN(C)CC3)cc2)c2ccccc2n1` ; measured pIC50: 7.96

Lookup result for `CC#CCOc1ccc(S(=O)(=O)CC2(C(=O)NO)CCNCC2)cc1` ; measured pIC50: 9.00

Lookup result for `Cc1cc(COc2ccc(S(=O)(=O)C3(C(=O)NO)CCN(C(=O)c4ccccc4)CC3)cc2)c2ccccc2n1` ; measured pIC50: 9.00

Lookup result for `Cc1cc(COc2ccc(S(=O)(=O)C3(C(=O)NO)CCN(C=O)CC3)cc2)c2ccccc2n1` ; measured pIC50: 8.70
